tested on: AVEFA; test: Herbicidal post-emergence action 1a (greenhouse pots, visual rating); type: in vivo, Avena fatua; conditions: Dosage 80 g/ha; rated visually about 3 weeks after treatment; 100% = plants have died, 0% = like control plants
Post-emergence action against AVEFA in % values for the compounds below.

compound	Post-emergence action against AVEFA in %
COC(=O)[C@@H](C)Oc1nn(-c2cnccn2)c(-c2cncc(F)c2)c1Br [Example I-39]	80%
COC(=O)[C@@H](C)Oc1nn(-c2cnccn2)c(-c2ccc(F)c(F)c2)c1C#N [Example I-46]	80%
COC(=O)COc1nn(-c2cnccn2)c(-c2cncc(F)c2)c1Br [Example I-07]	100%
CCOC(=O)[C@@H](C)Oc1nn(-c2cnccn2)c(-c2cncc(F)c2)c1Br [Example I-99]	80%
COC(=O)[C@@H](C)Oc1nn(-c2cnccn2)c(-c2ccc(F)nc2)c1I [Example I-89]	90%
C[C@H](Oc1nn(-c2cnccn2)c(-c2cncc(F)c2)c1Br)C(=O)O [Example I-37]	90%
COC(=O)[C@@H](C)Oc1nn(-c2cnccn2)c(-c2cncc(F)c2)c1Cl [Example I-95]	80%
COC(=O)C(C)Oc1nn(-c2cnccn2)c(-c2cncc(F)c2)c1Br (racemic) [Example I-08]	100%
COC(=O)[C@@H](C)Oc1nn(-c2cnccn2)c(-c2ccc(F)nc2)c1C1CC1 [Example I-87]	90%
COC(=O)[C@@H](C)Oc1nn(-c2nccnc2Cl)c(-c2ccc(F)nc2)c1Br [Example I-72]	90%
COC(=O)C(C)Oc1nn(-c2cnccn2)c(-c2ccnc(F)c2)c1Br (racemic) [Example I-10]	80%
COC(=O)C(C)Oc1nn(-c2cnccn2)c(-c2ccc(F)c(F)c2)c1Br (racemic) [Example I-16]	90%
COC(=O)COc1nn(-c2cnccn2)c(-c2ccnc(F)c2)c1Br [Example I-09]	90%
C[C@@H](Oc1nn(-c2cnccn2)c(-c2cccc(F)c2)c1Br)C(=O)O [Example I-48]	80%
COC(=O)C(C)Oc1nn(-c2cnccn2)c(-c2ccc(F)c(F)c2)c1C#N (racemic) [Example I-22]	100%
COC(=O)[C@@H](C)Oc1nn(-c2cnccn2)c(-c2ccc(F)nc2)c1Br [Example I-17]	90%
COC(=O)[C@@H](C)Oc1nn(-c2cnccn2)c(-c2cccc(F)c2)c1Br [Example I-20]	90%
CC(Oc1nn(-c2cnccn2)c(-c2ccc(F)nc2)c1C1CC1)C(=O)O (centres unmarked) [Example I-86]	90%
COC(=O)C(C)Oc1nn(-c2cnccn2)c(-c2ccc(F)nc2)c1Br (racemic) [Example I-12]	100%
O=C(O)COc1nn(-c2cnccn2)c(-c2cncc(F)c2)c1Br [Example I-93]	100%
CCOC(=O)[C@@H](C)Oc1nn(-c2cnccn2)c(-c2cncc(F)c2)c1Cl [Example I-98]	80%
COC(=O)C(C)Oc1nn(-c2cnccn2)c(-c2ccnc(F)c2)c1Cl (racemic) [Example I-05]	90%
C=CCOC(=O)C(C)Oc1nn(-c2cnccn2)c(-c2ccc(F)nc2)c1Br (racemic) [Example I-13]	100%
COC(=O)COc1nn(-c2cnccn2)c(-c2ccc(F)c(F)c2)c1Br [Example I-15]	90%
O=C(O)COc1nn(-c2cnccn2)c(-c2cncc(F)c2)c1Cl [Example I-92]	90%
COC(=O)[C@@H](C)Oc1nn(-c2cnccn2)c(-c2ccc(F)nc2)c1Cl [Example I-36]	90%
